- targetDesc: Tyrosine-protein kinase SYK [355-635] (Homo sapiens)
pIC50: −log10 of the molar value.
Entry flag: Condition met if pIC50 reaches 7; Condition not met if it does not.

- compound: "Cc1cc(NC(=O)Cc2ccc(Nc3nccc(Nc4cccc5[nH]ncc45)n3)cc2)no1 [GTC000206A]"
  categoryLabel: "Condition not met"
- compound: "O=C1CNC(=O)N1c1ccc(Nc2nccc(Nc3cccc4[nH]ncc34)n2)cc1 [GTC000166A]"
  categoryLabel: "Condition not met"
- compound: "NC(=O)c1cccc(Nc2nccc(N(CCCO)c3cccc4[nH]ncc34)n2)c1 [GTC000309A]"
  categoryLabel: "Condition met"
- compound: "CCN(c1nc(Nc2ccc3[nH]c(=O)n(C)c3c2)ncc1F)c1cccc2[nH]ncc12 [GTC000321A]"
  categoryLabel: "Condition met"

# input for lookup
Asked: Tell me whether pIC50 is at least 7 here: O=S(=O)(O)c1cccc(Nc2nccc(Nc3cccc4[nH]ncc34)n2)c1 [GTC000190A]
Given back: Condition not met

---

Entries with their measured pIC50, system Tyrosine-protein kinase SYK [355-635] (Homo sapiens, UniProt P43405):
Hey, just a heads up that pIC50 is the negative log base 10 of the concentration in molar.

- molecule: "CCN(CC)C(=O)c1ccc(Nc2nccc(Nc3cccc4[nH]ncc34)n2)cc1 [GTC000150A]"
  pIC50: 6.50

Asked: Tell me measured pIC50 for OCCN(c1ccnc(Nc2ccc3nn[nH]c3c2)n1)c1cccc2[nH]ncc12 [GTC000232A] please.
Given back: 8.69

Asked: Tell me measured pIC50 for COCCN(c1ccnc(Nc2ccc3cnn(C)c3c2)n1)c1cccc2[nH]ncc12 [GTC000313A] please.
Given back: 7.78

---

- targetDesc: Tyrosine-protein kinase SYK [355-635] (Homo sapiens, UniProt P43405)
- Construct: 355-635
- experimentalDetails: SYK assay_HTRF
assayMetric: pIC50
Hey, just a heads up that pIC50 is the negative log base 10 of the concentration in molar.

Example cases with answers are listed next.
- molecule: "NCCCCN(c1ccnc(Nc2ccc3[nH]c(=O)[nH]c3c2)n1)c1cccc2[nH]ncc12 [GTC000280A]"
  pIC50: 8.13
- molecule: "OCCCN(c1nc(Nc2ccc3nn[nH]c3c2)ncc1F)c1cccc2[nH]ncc12 [GTC000295A]"
  pIC50: 8.02

Asked: Tell me measured pIC50 for COCCN(c1ccnc(Nc2ccc3c(c2)S(=O)(=O)NC3)n1)c1cccc2[nH]ncc12 [GTC000285A] please.
Given back: 8.08

Asked: Tell me measured pIC50 for CC(=O)NCCCCCN(c1ccnc(Nc2ccc3[nH]c(=O)[nH]c3c2)n1)c1cccc2[nH]ncc12 [GTC000310A] please.
Given back: 7.79

---

- targetDesc: Tyrosine-protein kinase SYK [355-635] (Homo sapiens)
pIC50: −log10 of the molar value.
Entry flag: Criterion met if pIC50 reaches 8; Criterion not met if it does not.

Answered cases to consult:
- molecule: "O=c1[nH]c2ccc(Nc3ncc(F)c(N(CCCO)c4cccc5[nH]ncc45)n3)cc2[nH]1 [GTC000262A]"
  categoryLabel: "Criterion met"
- molecule: "O=C1CCCc2cc(Nc3nccc(Nc4cccc5[nH]ncc45)n3)ccc21 [GTC000117A]"
  categoryLabel: "Criterion not met"
- molecule: "Cc1noc(NC(=O)Cc2ccc(Nc3nccc(Nc4cccc5[nH]ncc45)n3)cc2)c1C [GTC000205A]"
  categoryLabel: "Criterion not met"
- molecule: "c1cc(Nc2ccnc(Nc3ccc(N4CCOCC4)cc3)n2)c2cn[nH]c2c1 [GTC000129A]"
  categoryLabel: "Criterion not met"

Asked: Tell me whether pIC50 is at least 8 here: c1cc(Nc2ccnc(Nc3ccc4c(c3)CCO4)n2)c2cn[nH]c2c1 [GTC000111A]
Given back: Criterion not met

Asked: Tell me whether pIC50 is at least 8 here: CCN(c1nc(Nc2ccc(-c3cnco3)c(OC)c2)ncc1F)c1cccc2[nH]ncc12 [GTC000362A]
Given back: Criterion not met

Asked: Tell me whether pIC50 is at least 8 here: CCN(c1nc(Nc2ccc3cnn(C)c3c2)ncc1Cl)c1cccc2[nH]ncc12 [GTC000334A]
Given back: Criterion not met

Asked: Tell me whether pIC50 is at least 8 here: O=C(O)CCCN(c1ccnc(Nc2ccc3c(c2)S(=O)(=O)NC3)n1)c1cccc2[nH]ncc12 [GTC000245A]
Given back: Criterion met

Asked: Tell me whether pIC50 is at least 8 here: CC(=O)N1CCc2cc(Nc3nccc(Nc4cccc5[nH]ncc45)n3)ccc21 [GTC000114A]
Given back: Criterion not met

Asked: Tell me whether pIC50 is at least 8 here: CNC(=O)COc1ccc(Nc2nccc(Nc3cccc4[nH]ncc34)n2)cc1 [GTC000197A]
Given back: Criterion not met

Asked: Tell me whether pIC50 is at least 8 here: O=S1(=O)NCc2ccc(Nc3ncc(F)c(N(CCCO)c4cccc5[nH]ncc45)n3)cc21 [GTC000230A]
Given back: Criterion met

Asked: Tell me whether pIC50 is at least 8 here: COCCCN(c1nc(Nc2ccc3nn[nH]c3c2)ncc1F)c1cccc2[nH]ncc12 [GTC000336A]
Given back: Criterion not met

Asked: Tell me whether pIC50 is at least 8 here: O=C(COc1ccc(Nc2nccc(Nc3cccc4[nH]ncc34)n2)cc1)NCCCN1CCCC1=O [GTC000204A]
Given back: Criterion not met

Asked: Tell me whether pIC50 is at least 8 here: N#Cc1ccc(Nc2nccc(Nc3cccc4[nH]ncc34)n2)cc1 [GTC000139A]
Given back: Criterion not met

Asked: Tell me whether pIC50 is at least 8 here: NCCN(c1nc(Nc2ccc3c(c2)S(=O)(=O)CC3)ncc1F)c1cccc2[nH]ncc12 [GTC000371A]
Given back: Criterion not met

---

Recorded IC50 for the following molecules
- targetDesc: Tyrosine-protein kinase SYK [355-635] (Homo sapiens, UniProt P43405)
Express it in µM; write the number only.

Example cases with answers are listed next.
- molecule: "CN(c1nc(Nc2ccc3c(cnn3C)c2)ncc1F)c1cccc2[nH]ncc12 [GTC000303A]"
  targetDesc: "Tyrosine-protein kinase SYK [355-635] (Homo sapiens, UniProt P43405)"
  assayMetric: "IC50"
  unitText: "µM"
  valueObserved: 0.0115
- molecule: "Cc1ncoc1-c1cccc(Nc2nccc(N(CCCCO)c3cccc4[nH]ncc34)n2)c1 [GTC000286A]"
  targetDesc: "Tyrosine-protein kinase SYK [355-635] (Homo sapiens, UniProt P43405)"
  assayMetric: "IC50"
  unitText: "µM"
  valueObserved: 0.00764
- molecule: "CCNC(=O)c1ccc(Nc2ncc(F)c(N(CC)c3cccc4[nH]ncc34)n2)cc1 [GTC000312A]"
  targetDesc: "Tyrosine-protein kinase SYK [355-635] (Homo sapiens, UniProt P43405)"
  assayMetric: "IC50"
  unitText: "µM"
  valueObserved: 0.0161

Asked: Enter measured IC50, system Tyrosine-protein kinase SYK [355-635] (Homo sapiens, UniProt P43405), for the molecule shown: O=S1(=O)NCc2ccc(Nc3nccc(N(CC(F)(F)F)c4cccc5[nH]ncc45)n3)cc21 [GTC000314A]
Given back: 0.0157

Asked: Enter measured IC50, system Tyrosine-protein kinase SYK [355-635] (Homo sapiens, UniProt P43405), for the molecule shown: CCN(c1nc(Nc2ccc3c(c2)[nH]c(=O)n3C)ncc1F)c1cccc2[nH]ncc12 [GTC000283A]
Given back: 0.00813
